target: recombinant human brain-derived phosphodiesterase 4D3 (Homo sapiens, UniProt Q08499); construct: GST (N); test: Assay of phosphodiesterase IV-inhibiting effect (SPA, [3H]cAMP); conditions: recombinant human brain-derived phosphodiesterase 4D3, SPA with [3H]cAMP, 30 minutes at 30° C.; read-out: PDE IV-inhibiting effect (IC50)
Sequence (Q08499 1-673 isoform Q08499-2): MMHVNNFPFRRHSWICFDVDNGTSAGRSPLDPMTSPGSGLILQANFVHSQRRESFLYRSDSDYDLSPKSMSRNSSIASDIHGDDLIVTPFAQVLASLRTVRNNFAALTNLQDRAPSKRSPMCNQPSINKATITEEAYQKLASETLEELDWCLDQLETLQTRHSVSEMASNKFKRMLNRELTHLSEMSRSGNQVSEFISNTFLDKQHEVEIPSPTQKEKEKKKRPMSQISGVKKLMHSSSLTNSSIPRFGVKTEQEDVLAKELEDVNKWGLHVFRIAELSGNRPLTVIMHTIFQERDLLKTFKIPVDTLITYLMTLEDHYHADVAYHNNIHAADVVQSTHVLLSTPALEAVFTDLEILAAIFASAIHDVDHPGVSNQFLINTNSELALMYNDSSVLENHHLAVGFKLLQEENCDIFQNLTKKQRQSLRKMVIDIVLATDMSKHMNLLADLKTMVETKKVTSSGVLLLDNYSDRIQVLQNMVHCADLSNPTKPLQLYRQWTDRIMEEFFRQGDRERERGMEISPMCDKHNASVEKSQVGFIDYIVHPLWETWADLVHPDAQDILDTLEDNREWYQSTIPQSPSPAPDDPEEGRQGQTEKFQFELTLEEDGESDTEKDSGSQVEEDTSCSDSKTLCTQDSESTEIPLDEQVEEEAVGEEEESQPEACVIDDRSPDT
Quantity Name: IC50 (nM)
Express the result in nM but write the number alone.

CCNC(=O)c1cccc(C2=NC(C)(C)Cc3cc(OC)c4c(c32)CC(C)(C)O4)c1 :: 123
CNC(=O)c1cccc(C2=NC(C)(C)Cc3cc(OC)c4c(c32)CC(C)(C)O4)c1 :: 124
COc1cc2c(c3c1OC(C)(C)C3)C(c1cccc(NC(=O)C[S+](C)[O-])c1)=NC(C)(C)C2 (stereo not shown) :: 19.4

**Q:** Can you look up IC50 on recombinant human brain-derived phosphodiesterase 4D3 (Homo sapiens, UniProt Q08499) for "COc1cc2c(c3c1OC(C)(C)C3)C(c1cccc(N(S(C)(=O)=O)S(C)(=O)=O)c1)=NC(C)(C)C2" ?
**A:** 9.36

**Q:** Notebook: pull reported IC50 for recombinant human brain-derived phosphodiesterase 4D3 (Homo sapiens, UniProt Q08499), entry "COc1cc2c(c3c1OC(C)(C)C3)C(c1cccc(C(=O)NCC(N)=O)c1)=NC(C)(C)C2"
**A:** 82

**Q:** For recombinant human brain-derived phosphodiesterase 4D3 (Homo sapiens, UniProt Q08499), provide IC50 of "COc1cc2c(c3c1OC(C)(C)C3)C(c1cccc(C(=O)NCCc3ccncc3)c1)=NC(C)(C)C2" please.
**A:** 40.1

**Q:** Which IC50 is reported with recombinant human brain-derived phosphodiesterase 4D3 (Homo sapiens, UniProt Q08499) for this entry: "COc1cc2c(c3c1OC(C)(C)C3)C(c1cccc(-c3cccc(NC(C)=O)c3)c1)=NC(C)(C)C2" ?
**A:** 13.7
